Source: the RNAGym collection of RNA variant scans (doi:10.7554/elife.90254)

B1: OR4K15 (parent)
chain: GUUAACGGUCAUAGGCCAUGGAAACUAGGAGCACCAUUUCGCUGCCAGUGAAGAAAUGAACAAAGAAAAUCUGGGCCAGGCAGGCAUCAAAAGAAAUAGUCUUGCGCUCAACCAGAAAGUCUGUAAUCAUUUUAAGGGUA

- Variants of: B1
- protocol details: self-cleavage, relative activity (ratio to wild type); higher = more cleavage; in vitro, sequencing; the parent is a self-cleaving ribozyme
self-cleavage by entry:
Format: numeric value only, no unit, no commentary.

Some solved entries appear below for comparison.
A78G U127G | 0.27
A90G A114G | 0.16
A11G U102C | 1.41
A33U C77A | 1
C6A A117G | 0.6
U9A A52C | 2.25
A51G A91U | 1.61
U9C U122C | 1.15

Summary for this variant, G83A U122C : self-cleavage is 1.87

The reported self-cleavage of the variant A55C A126G was 1.09

The recorded self-cleavage for A52G A60C is 0.73

Entry under test: A63G C88U . Its self-cleavage was 1.69

Record C25G A118G , field self-cleavage: 0.35

Sample A54G C85A ; self-cleavage observed: 0.82

# variant A51G A110G ; its self-cleavage = 0.08

self-cleavage reading for A24G C105A : 0.02
